PROTOCOL DESCRIPTION: qHTS for Inhibitors of human tyrosyl-DNA phosphodiesterase 1 (TDP1): qHTS in cells in presence of CPT; note: nearly all actives have a fitted effect of over 55% in size
RUN CONDITIONS: chicken DT40 Tdp1-/-;hTDP1 cells + 20 nM CPT, ATP luminescence, 48 h; series mostly up to 46.2 µM
Screen size: about 420,000 compounds; about 50,000 (12%) were called active. Another 26% or so got no clear call; they are omitted. Calls come from the whole dose curve; as a rule, active = well fitted inhibition curve with a large enough effect; inconclusive = small, poorly fitted or top-dose-only effect; inactive = flat fitted curve, though single readings scatter. The sample holds actives, similar compounds and a random draw of the others, so the mix is not that of the screen.
Can you answer with just one of these options? active, inactive

Recorded results for 5 molecules are shown here.
Cc1ccc(S(=O)(=O)NCCC(=O)Nc2cccc(S(N)(=O)=O)c2)cc1C	inactive
CCc1cc(-c2nnn(CCC3COCCO3)c2CC)ccc1-c1cn(Cc2ccc3ccccc3c2)nn1 (configuration not stated)	active
Cc1cc(-c2ccc(S(=O)(=O)N3CCc4ccccc4C3)s2)on1	inactive
Cc1cc(C)cc(NS(=O)(=O)c2ccc(-c3cc(C)no3)s2)c1	active
Cc1noc(C)c1S(=O)(=O)N(C)C[C@H]1Oc2ccc(NC(=O)C3CC3)cc2C(=O)N([C@H](C)CO)C[C@@H]1C	inactive

Attention now turns to another entry.
*Q* So what was the verdict on Cc1c(C(=O)N/N=C/c2ccccc2)[nH]c2c([N+](=O)[O-])cccc12 in this test?
*A* active
